Please provide measured normalized growth for the entries that follow.
# test summary: chemical genetic growth profiling, strain panel (AID 1159580);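 also: tested at 20 µM; growth read once vehicle control cultures reached saturation at 30 °C; 1 = growth at the plate median or of vehicle wells; lower values mean less growth of the strain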
# study conditions: S. cerevisiae deletion strains, growth OD, locus YDR101C, strain arx1, stronger effect = lower value
The whole screen tested about 5,500 compounds, of which about 2,000 (36%) were called active. About 18% were inconclusive and are not listed. The list shows a part of the results.
Numbers only.

Look over these answered cases.
CNCCC=C1c2ccccc2CCc2ccccc21    1.03
COc1c2c(cc3c1OCO3)CC[N+](C)=C2    1

We now examine a further compound.
## Input Look up normalized growth: `CN(C)CC/C=C1/c2ccccc2COc2ccccc21`
## Output 0.992

###

# test summary: chemical genetic growth profiling, strain panel (AID 1159580);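 also: tested at 20 µM; growth read once vehicle control cultures reached saturation at 30 °C; 1 = growth at the plate median or of vehicle wells; lower values mean less growth of the strain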
# study conditions: S. cerevisiae deletion strains, growth OD, locus YLR085C, strain ARP6, stronger effect = lower value
Out of some 5,500 compounds screened, about 2,000 (36%) were called active. Inconclusive results (about 18%) are left out. This is one part of the list.
Mark 1 for normalized growth under 0.9, -1 if at or over.

O=C(N/N=C\c1ccccc1Cl)c1cccnc1    -1
CCCCCCCCCCc1ccc(-c2ccccc2)cc1    1

## Input Does the reported normalized growth of `CC(=O)c1csc(-c2ccc(C(F)(F)F)cc2)n1` stay below 0.9?
## Output 1

## Input Next compound up: `COC(=O)c1ccc(Cl)cc1N(Cc1ccccc1)S(C)(=O)=O`
## Output -1

## Input Next compound up: CC(=O)C1COc2ccc(C)cc2C1=O (stereo unspecified)
## Output 1

###

# test summary: chemical genetic growth profiling, strain panel (AID 1159580);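 also: tested at 20 µM; growth read once vehicle control cultures reached saturation at 30 °C; 1 = growth at the plate median or of vehicle wells; lower values mean less growth of the strain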
# study conditions: S. cerevisiae deletion strains, growth OD, locus YER016W, strain bim1, stronger effect = lower value
Out of some 5,500 compounds screened, about 2,000 (36%) were called active. About 18% were inconclusive and are not listed. The list shows a part of the results.
Please provide measured normalized growth for the entries that follow.
Numbers only.

COc1c2c(cc3c1OCO3)CC[N+](C)=C2    1.01
C=C1C(N)CC2CC1C2(C)C (stereo unspecified)    0.994
COc1cc([C@@H]2c3cc4c(cc3C(O[C@@H]3O[C@@H]5CO[C@@H](c6cccs6)OC5[C@H](O)[C@H]3O)C3COC(=O)[C@@H]32)OCO4)cc(OC)c1O (stereo partly specified)    0.999
CCn1cc(C(=O)O)c(=O)c2cc(F)c(N3CCNCC3)cc21    0.986
CCN1CCN(c2cc3c(cc2F)c(=O)c(C(=O)O)cn3C2CC2)CC1    0.995
CN(N=O)C(=O)N[C@@H]1[C@@H](O)[C@H](O)[C@@H](CO)O[C@@H]1O    0.983

// each listed molecule needs a value for normalized growth
1. O=C(O)/C=C(\CC(=O)O)C(=O)O
2. Cn1c(=O)c2[nH]c(C3CCCC3)nc2n(C)c1=O
3. CC(C)c1ccc2c(c1O)CC[C@H]1C3=C(CC[C@]21C)C(=O)OC3
4. CC(=O)O[C@H]1C[C@@]2(C)[C@H](c3ccoc3)OC(=O)[C@H]3O[C@]32[C@@]2(C)C1[C@]1(C)C(C[C@H]2OC(C)=O)C(C)(C)[C@H](OC(C)=O)C[C@@H]1OC(C)=O (stereo partly specified)
5. CCCN1C[C@H](CSC)C[C@@H]2c3cccc4[nH]cc(c34)C[C@H]21
6. COc1c(O)cccc1O

## Output
[0.984, 0.99, 0.976, 0.98, 1.02, 1.02]

// each listed molecule needs a value for normalized growth
1. CC1=C2C(=CO[C@H](C)[C@H]2C)C(=O)C(C(=O)O)=C1O
2. OC1C(O)C(O)C(O)C(O)C1O (stereo unspecified)
3. CC(=O)O[C@H]1C[C@H](O[C@H]2[C@@H](O)C[C@H](O[C@H]3[C@@H](O)C[C@H](O[C@H]4CC[C@@]5(C)C(CCC6C5C[C@@H](O)[C@]5(C)[C@@H](C7=CC(=O)OC7)CC[C@]65O)C4)O[C@@H]3C)O[C@@H]2C)O[C@H](C)[C@H]1O[C@@H]1O[C@H](CO)[C@@H](O)[C@H](O)[C@H]1O (stereo partly specified)
4. C[N+]1(CCCCC[N+]2(C)CCCC2)CCCC1

## Output
1: 0.976; 2: 0.991; 3: 0.993; 4: 0.995
